- EXPERIMENT NOTES: qHTS assay to identify small molecule antagonists of the retinoic acid receptor (RAR) signaling pathway (AID 1159552; also: % is scaled to controls: 0 for no effect and ±100 for the full control effect; nearly all actives have a fitted effect of over 50% in size)
- ASSAY SETUP: C3RL4 RARE luciferase reporter, retinol-stimulated, 6 h; series mostly up to 92.4 µM
Inconclusive results are not listed. The source made the active and inactive calls. Calls follow the shape of the dose curve; as a rule, active = well fitted inhibition curve with a large enough effect in the repeat runs; inconclusive = weak or mixed curves, or effect the other way; inactive = no such curve, though single readings can be large or run the other way.
REPORTED METRIC: activity, negative = inhibition

{"MOLECULE": "NS(=O)(=O)c1cc2c(cc1Cl)CN(C1CCCCC1)C2=O", "activity, negative = inhibition": "inactive"}
{"MOLECULE": "BrCc1cccc(Oc2ccccc2)c1", "activity, negative = inhibition": "inactive"}
{"MOLECULE": "O=C(/N=N/C(=O)OCc1ccccc1)OCc1ccccc1", "activity, negative = inhibition": "inactive"}
{"MOLECULE": "COc1ccc2c(c1OC)C(=O)O[C@@H]2[C@H]1c2c(cc3c(c2OC)OCO3)CCN1C", "activity, negative = inhibition": "inactive"}
{"MOLECULE": "COP(=O)(OC)OC(c1ccc(Cl)cc1)P(=O)(OC)OC (stereo unspecified)", "activity, negative = inhibition": "inactive"}

Field: next molecule
Ask: Answer with the recorded activity, negative = inhibition for the molecule listed here: O=C(NCCc1c[nH]c2ccccc12)c1cccnc1
Result: inactive

====

- EXPERIMENT NOTES: A CellTox Green Cytotoxicity Assay to monitor cytotoxicity in HEK293 cells - 24 hour (AID 1224875); also: % is scaled to controls: 0 for no effect and ±100 for the full control effect; nearly all actives have a fitted effect of over 45% in size
- ASSAY SETUP: CellTox Green fluorescence, stronger effect = higher value; series mostly up to 76.8 µM
Inconclusive results are not listed. Activity calls are given as the source filed them. Calls follow the shape of the dose curve; as a rule, active = well fitted activation curve with a large enough effect in the repeat runs; inconclusive = weak or mixed curves; inactive = flat fitted curve, though single readings scatter.
REPORTED METRIC: activity change

{"MOLECULE": "CCOC(=O)c1ccc(OC(=O)CCCCCN=C(N)N)cc1", "RESULT": "inactive"}
{"MOLECULE": "CCCCCCCCCCCCCC", "RESULT": "inactive"}
{"MOLECULE": "CC(=O)c1sc(C)nc1C", "RESULT": "inactive"}
{"MOLECULE": "O=C(O)Cc1cn(-c2ccccc2)nc1-c1ccc(Cl)cc1", "RESULT": "inactive"}
{"MOLECULE": "COC(=O)C1CC(=O)C(C(=O)OC)CC1=O (centres undefined)", "RESULT": "2.42% [at 6.97 µM] (inactive)"}
{"MOLECULE": "COc1nccnc1NS(=O)(=O)c1ccc(N)cc1", "RESULT": "inactive"}
{"MOLECULE": "O=C(O)c1cc(Br)c(O)c(Br)c1", "RESULT": "inactive"}
{"MOLECULE": "OC[C@H](Cc1cccc(O)c1)[C@H](CO)Cc1cccc(O)c1", "RESULT": "inactive"}
{"MOLECULE": "COc1ccc(Br)c(C)c1", "RESULT": "inactive"}
{"MOLECULE": "CCCCN", "RESULT": "inactive"}

Ask: Answer with the recorded activity change for the molecule listed here: O=C(OCC(COC(=O)c1cccnc1)(COC(=O)c1cccnc1)COC(=O)c1cccnc1)c1cccnc1
Result: inactive

Ask: Read off the recorded activity change for CC(=O)NCc1c(I)c(NC(C)=O)c(I)c(C(=O)O)c1I
Result: inactive

Ask: Determine its reported activity change: COc1cc(N)ccc1C
Result: inactive

Ask: Give a short answer stating reported activity change for BrCc1cccc(Oc2ccccc2)c1 .
Result: inactive

Ask: Look up and report measured activity change for this entry: C[Si](C)(C)C
Result: inactive

Ask: Given NCCS , respond with its activity change.
Result: inactive

Ask: Hello, please tell me recorded activity change for this one: CCOC(=O)CC(=O)c1ccccc1
Result: inactive

Ask: Return activity change for the following molecule: O=S(O)(O)=S
Result: -0.341% [at 6.97 µM] (inactive)

Ask: Give activity change for the following molecule: CC(C)(C)OC(=O)c1ccc(O)cc1
Result: inactive

====

- EXPERIMENT NOTES: qHTS assay to identify small molecule agonists of the NFkB signaling pathway - cell viability counter screen (AID 1159515); also: % is scaled to controls: 0 for no effect and ±100 for the full control effect; nearly all actives have a fitted effect of over 55% in size
- ASSAY SETUP: NFkB-bla ME-180 viability, CellTiter-Glo luminescence, 5 h; series mostly up to 61 µM
- Excerpt: National Center for Advancing Translational Sciences [NCATS] NIH Chemical Genomics Center [NCGC] U.S. Environmental Protection Agency [EPA] National Institutes of Environmental Health Sciences [NIEHS] National Toxicology Program [NTP] U.S. Food and Drug Administration [FDA] Transcription factors and their stimulated target gene expression play pivotal roles across many cellular processes including responses to environmental stimuli. […]
Records with an inconclusive call do not appear. Activity calls are given as the source filed them. Calls come from the whole dose curve.
REPORTED METRIC: activity, negative = cytotoxic

{"COMPOUND": "CC(=O)/C=C/C1C(C)=CCC(C)C1(C)C (stereo unspecified)", "activity, negative = cytotoxic": "inactive"}
{"COMPOUND": "Cc1cccc(OCC(O)CNC(C)(C)C)c1C (stereo unspecified)", "activity, negative = cytotoxic": "inactive"}
{"COMPOUND": "CC1(C)S[C@@H]2[C@H](N=CN3CCCCCC3)C(=O)N2[C@H]1C(=O)O", "activity, negative = cytotoxic": "inactive"}
{"COMPOUND": "O=C1c2ccccc2C(=O)c2cc(S(=O)(=O)O)ccc21", "activity, negative = cytotoxic": "inactive"}
{"COMPOUND": "N[C@@H](CCC(=O)Nc1ccc([N+](=O)[O-])cc1)C(=O)O", "activity, negative = cytotoxic": "inactive"}
{"COMPOUND": "COc1ccc(S(=O)(=O)N2c3ccc(Cl)cc3[C@@](O)(c3ccccc3Cl)[C@H]2C(=O)N2CCC[C@@H]2C(N)=O)cc1OC", "activity, negative = cytotoxic": "inactive"}
{"COMPOUND": "CN(C)C(=O)CNC(=O)Cc1ccccc1", "activity, negative = cytotoxic": "inactive"}
{"COMPOUND": "N[C@@H](COP(=O)(O)O)C(=O)O", "activity, negative = cytotoxic": "inactive"}

Ask: Specify measured activity, negative = cytotoxic for C[Si](C)(C)C .
Result: inactive

Ask: Look up and report measured activity, negative = cytotoxic for this entry: COCCOCCOCCOCCO
Result: inactive

Ask: Determine its reported activity, negative = cytotoxic: CC(CN)CC(C)(C)CCN (stereo unspecified)
Result: inactive

Ask: Given O=C(NCC(O)CO)c1c(I)c(C(=O)NCC(O)CO)c(I)c(N(CCO)C(=O)CO)c1I (stereo unspecified) , respond with its activity, negative = cytotoxic.
Result: inactive

Ask: Look up activity, negative = cytotoxic of Cc1ccccc1N=O and report it.
Result: inactive

Ask: Give the measured activity, negative = cytotoxic for BrCCCCCBr
Result: inactive

Ask: Annotate the compound CN1CCN(CC(=O)N2c3ccccc3C(=O)Nc3cccnc32)CC1 with its measured activity, negative = cytotoxic.
Result: 1.12% [at 6.95 µM] (inactive)

Ask: Answer with the recorded activity, negative = cytotoxic of CNC(=O)[C@H]1O[C@@H](n2cnc3c(NCc4cc(Cl)ccc4OCc4cc(C)no4)ncnc32)[C@H](O)[C@@H]1N only.
Result: inactive

Ask: Given the compound C=C(C)C1CCC(C)(O)CC1 (stereo unspecified) , write its reported activity, negative = cytotoxic.
Result: inactive

Ask: Determine from records and report activity, negative = cytotoxic for Cc1ccc2ccc(Cl)cc2n1
Result: inactive

Ask: Tell us which activity, negative = cytotoxic value is on record for CN=C(NC#N)Nc1ccc(C2=NNC(=O)CC2C)cc1 (stereo unspecified)
Result: inactive

Ask: Return activity, negative = cytotoxic for the following compound: C[C@H](N)[C@H](O)c1cccc(O)c1
Result: inactive

Ask: For the compound O=C1O[C@@H]2[C@@H](O)[C@H](O)O[C@@H]2[C@H]1O , report activity, negative = cytotoxic.
Result: inactive

Ask: Identify measured activity, negative = cytotoxic corresponding to CCCCCCCCCCl
Result: inactive

Ask: Note down activity, negative = cytotoxic recorded for CCn1ccc(NS(=O)(=O)c2ccc(N)cc2)nc1=O
Result: inactive

Ask: Give a short answer stating reported activity, negative = cytotoxic for Nc1cccc(O)c1 .
Result: inactive

Ask: Quick one: give measured activity, negative = cytotoxic for O=C(O)CCSSCCC(=O)O
Result: inactive

Ask: Determine from records and report activity, negative = cytotoxic for COc1cc(NS(=O)(=O)c2ccc(N)cc2)nc(OC)n1
Result: inactive

Ask: Report activity, negative = cytotoxic, nothing else, for this compound: COc1cc(C(=S)N2CCOCC2)cc(OC)c1OC
Result: inactive

Ask: Return the recorded activity, negative = cytotoxic value; entry: CCN(CC)CC(=O)Nc1c(C)cccc1C
Result: inactive

Ask: Return activity, negative = cytotoxic (reported value) for this compound: Cc1cc(Cl)c(C)cc1Cl
Result: inactive

Ask: Assign activity, negative = cytotoxic to the following record: Nc1ccc2cc(S(=O)(=O)O)cc(O)c2c1
Result: inactive

Source listed as PubChem BioAssay (Tox21).
